tested on: NCI-H1563; assay: relative viability (nuclei count vs DMSO), 5 days (fraction); higher = more cells survive; conditions: first compound 0.03162 µM
measure_name: relative viability

{"columns": ["molecule", "result"],
 "data": [
  ["Cc1cn(-c2cc(NC(=O)c3ccc(C)c(Nc4nccc(-c5cccnc5)n4)c3)cc(C(F)(F)F)c2)cn1 [Nilotinib] + C[C@]1(O)C[C@@H](c2nc(-c3ccc4ccc(-c5ccccc5)nc4c3)c3c(N)nccn32)C1 [Linsitinib] (partner 1 µM)", 1.15],
  ["Cc1cn(-c2cc(NC(=O)c3ccc(C)c(Nc4nccc(-c5cccnc5)n4)c3)cc(C(F)(F)F)c2)cn1 [Nilotinib] + Cc1nc(Nc2ncc(C(=O)Nc3c(C)cccc3Cl)s2)cc(N2CCN(CCO)CC2)n1 [Dasatinib] (partner 0.075 µM)", 0.492],
  ["Cc1cn(-c2cc(NC(=O)c3ccc(C)c(Nc4nccc(-c5cccnc5)n4)c3)cc(C(F)(F)F)c2)cn1 [Nilotinib] + COc1cc2c(Oc3ccc(NC(=O)C4(C(=O)Nc5ccc(F)cc5)CC4)cc3F)ccnc2cc1OCCCN1CCOCC1 [Foretinib] (partner 0.25 µM)", 0.852],
  ["Cc1cn(-c2cc(NC(=O)c3ccc(C)c(Nc4nccc(-c5cccnc5)n4)c3)cc(C(F)(F)F)c2)cn1 [Nilotinib] + CS(=O)(=O)N1CCN(Cc2cc3nc(-c4cccc5[nH]ncc45)nc(N4CCOCC4)c3s2)CC1 [Pictilisib] (partner 1 µM)", 0.602],
  ["Cc1cn(-c2cc(NC(=O)c3ccc(C)c(Nc4nccc(-c5cccnc5)n4)c3)cc(C(F)(F)F)c2)cn1 [Nilotinib] + CCNC(=O)c1noc(-c2cc(C(C)C)c(O)cc2O)c1-c1ccc(CN2CCOCC2)cc1 [Luminespib] (partner 0.01 µM)", 0.51]
]}
